Record form. Attribute: GI50. Fill in for each entry.
- Tested on: MDA-MB-231
- protocol-text: Anticancer activity against human MDA-MB-231 cells
- Assay type: functional

Prompt line: Requested read-out: GI50. Entry: `CCOC(=O)C[C@@H](NC(=O)[C@@H](Cc1c(Br)[nH]c2ccccc12)N(C)C(=O)[C@H](C)NC(=O)[C@@H](C)C/C(C)=C/[C@H](C)C[C@H](C)O)c1ccc(O)cc1`
Response line: 740 nM

Prompt line: And C/C1=C\[C@H](C)C[C@H](C)OC(=O)C[C@H](c2ccc(O)cc2)NC(=O)[C@@H](Cc2c(Br)[nH]c3cc(Br)ccc23)N(C)C(=O)[C@H](C)NC(=O)[C@@H](C)C1 [JASPLAKINOLIDE R1] ?
Response line: 90 nM

Prompt line: And `C/C1=C\[C@H](C)C[C@H](C)OC(=O)C[C@H](c2ccc(O)c(O)c2)NC(=O)[C@@H](Cc2c(Br)[nH]c3ccccc23)N(C)C(=O)[C@H](C)NC(=O)[C@@H](C)C1` ?
Response line: 90 nM

Prompt line: And `C/C(=C\[C@H](C)C[C@H](C)O)C[C@H](C)C(=O)N[C@@H](C)C(=O)N(C)[C@H](Cc1c(Br)[nH]c2ccccc12)C(N)=O` ?
Response line: 22300 nM

Prompt line: And C/C(=C\[C@H](C)C[C@H](C)O)C[C@H](C)C(=O)N[C@@H](C)C(=O)N(C)[C@H](Cc1c(Br)[nH]c2ccccc12)C(=O)N[C@H](CC(=O)O)c1ccc(O)cc1 [JASPLAKINOLIDE Z1] ?
Response line: 2500 nM

Prompt line: And CC[C@@H]1NC(=O)[C@@H](C)C/C(C)=C/[C@H](C)C[C@H](C)OC(=O)C[C@H](c2ccc(O)cc2)NC(=O)[C@@H](Cc2c(Br)[nH]c3ccccc23)N(C)C1=O [JASPLAKINOLIDE D] ?
Response line: 20 nM

Prompt line: And C/C1=C\[C@H](C)C[C@H](C)OC(=O)C[C@H](c2ccc(O)cc2)NC(=O)[C@@H](Cc2c(Br)[nH]c3ccccc23)NC(=O)[C@H](C)NC(=O)[C@@H](C)C1 [JASPLAKINOLIDE M] ?
Response line: 210 nM

Prompt line: And C/C1=C\[C@H](C)C[C@H](C)OC(=O)C[C@H](c2ccc(O)cc2)NC(=O)[C@@H](Cc2c[nH]c3ccccc23)N(C)C(=O)[C@H](C)NC(=O)[C@@H](C)C1 [JASPLAKINOLIDE Q] ?
Response line: 70 nM

Prompt line: And `C/C1=C\[C@H](C)C[C@H](C)OC(=O)/C=C(/c2ccc(O)c(O)c2)NC(=O)[C@@H](Cc2c(Br)[nH]c3ccccc23)N(C)C(=O)[C@H](C)NC(=O)[C@@H](C)C1` ?
Response line: 2320 nM

Prompt line: And C/C1=C\[C@H](C)C[C@H](C)OC(=O)C[C@H](c2ccc(O)cc2)NC(=O)[C@@H](Cc2c(Br)[nH]c3ccccc23)N(C)C(=O)[C@H](C)NC(=O)[C@@H](C)C1 [JASPAMIDE] ?
Response line: 10 nM

Prompt line: And C/C1=C\[C@H](C)C[C@H](C)OC(=O)C[C@H](c2ccc(O)cc2)NC(=O)[C@@H](Cc2c(Br)[nH]c3ccccc23)N(C)C(=O)[C@H](C)NC(=O)CC1 [JASPLAKINOLIDE F] ?
Response line: 260 nM

Prompt line: And C=C1C[C@H](C)C(=O)N[C@@H](C)C(=O)N(C)[C@H](Cc2c(Br)[nH]c3ccccc23)C(=O)N[C@@H](c2ccc(O)cc2)CC(=O)O[C@@H](C)C[C@@H](C)C1=O [JASPLAKINOLIDE B] ?
Response line: 40 nM
